These data points were gathered from patent US20260193264A1.

biological target: HiBiT-BRM fusion protein in stable HeLa cell line (Homo sapiens, UniProt P51531); construct: expressed in transfected cells; assay: HiBiT-BRM cell-based degradation assay (Nano-Glo HiBiT Lytic Detection, 24 h); design: scale not given here; conditions: HeLa HiBiT-BRM cells, read-out: BRM HiBit Degradation IC50
Sequence (P51531 whole entry, the tested form may be a part): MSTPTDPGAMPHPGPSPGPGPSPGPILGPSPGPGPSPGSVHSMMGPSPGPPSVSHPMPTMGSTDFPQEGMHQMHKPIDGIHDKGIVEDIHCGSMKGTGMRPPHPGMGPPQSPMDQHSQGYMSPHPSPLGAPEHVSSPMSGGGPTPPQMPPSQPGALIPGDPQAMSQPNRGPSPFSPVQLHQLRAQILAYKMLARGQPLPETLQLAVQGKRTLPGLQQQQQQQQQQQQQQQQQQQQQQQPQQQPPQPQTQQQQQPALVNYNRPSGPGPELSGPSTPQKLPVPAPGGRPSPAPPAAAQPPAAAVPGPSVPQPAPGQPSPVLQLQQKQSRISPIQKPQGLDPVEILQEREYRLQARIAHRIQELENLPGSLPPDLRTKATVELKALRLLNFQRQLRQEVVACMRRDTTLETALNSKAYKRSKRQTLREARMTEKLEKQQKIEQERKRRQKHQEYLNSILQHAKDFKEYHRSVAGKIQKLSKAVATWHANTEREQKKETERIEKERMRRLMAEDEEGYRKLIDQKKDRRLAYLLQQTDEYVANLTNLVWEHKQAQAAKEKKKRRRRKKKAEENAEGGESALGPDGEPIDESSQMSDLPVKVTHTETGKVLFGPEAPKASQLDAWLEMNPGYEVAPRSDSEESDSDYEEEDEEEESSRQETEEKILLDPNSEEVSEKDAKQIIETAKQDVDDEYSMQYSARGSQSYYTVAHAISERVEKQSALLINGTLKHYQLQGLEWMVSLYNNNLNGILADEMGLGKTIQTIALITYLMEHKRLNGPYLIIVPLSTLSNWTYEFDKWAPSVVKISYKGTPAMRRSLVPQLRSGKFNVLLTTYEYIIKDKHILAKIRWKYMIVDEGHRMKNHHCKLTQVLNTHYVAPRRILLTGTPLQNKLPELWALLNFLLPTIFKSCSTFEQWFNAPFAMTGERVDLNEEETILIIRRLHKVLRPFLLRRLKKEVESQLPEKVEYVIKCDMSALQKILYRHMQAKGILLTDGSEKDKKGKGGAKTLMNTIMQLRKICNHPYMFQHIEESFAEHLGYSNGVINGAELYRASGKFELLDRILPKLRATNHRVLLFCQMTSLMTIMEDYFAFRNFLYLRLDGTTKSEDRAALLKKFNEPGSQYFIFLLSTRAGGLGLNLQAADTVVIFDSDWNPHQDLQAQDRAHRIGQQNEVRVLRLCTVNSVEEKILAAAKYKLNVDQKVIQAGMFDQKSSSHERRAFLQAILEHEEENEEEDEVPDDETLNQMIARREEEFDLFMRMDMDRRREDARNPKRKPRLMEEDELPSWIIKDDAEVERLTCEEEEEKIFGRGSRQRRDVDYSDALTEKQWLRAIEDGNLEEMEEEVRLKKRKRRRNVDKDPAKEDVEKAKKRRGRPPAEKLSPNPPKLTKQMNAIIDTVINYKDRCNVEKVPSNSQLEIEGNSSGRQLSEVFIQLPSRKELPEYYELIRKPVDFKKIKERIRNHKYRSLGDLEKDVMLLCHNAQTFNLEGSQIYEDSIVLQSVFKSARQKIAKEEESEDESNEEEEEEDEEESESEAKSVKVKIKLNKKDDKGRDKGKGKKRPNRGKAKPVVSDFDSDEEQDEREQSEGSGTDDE
endpoint label: DC50

Prompt: Read the entry Cc1ncsc1-c1ccc([C@H](C)NC(=O)[C@@H]2C[C@@H](O)CN2C(=O)C(C(C)C)n2cc(N3C[C@H]4CN(c5ccc6cc(-c7ccccc7O)nnc6c5)C[C@H]4C3)nn2)cc1 (some centres unmarked) [Compound 213] and write its reported DC50.
Response: < 10 nM

Prompt: Read the entry Cc1ncsc1-c1ccc([C@H](C)NC(=O)[C@@H]2C[C@@H](O)CN2C(=O)[C@@H](c2cc(-c3cnc(N4CCC(c5ccc6nnc(-c7ccccc7O)cc6c5)CC4)nc3)no2)C(C)C)cc1 [Compound 42] and write its reported DC50.
Response: > 10 nM

Prompt: Read the entry Cc1ncsc1-c1ccc([C@H](C)NC(=O)[C@@H]2C[C@@H](O)CN2C(=O)[C@@H](c2cc(-c3cnc(N4CC5(CN(c6ccc7cc(-c8ccccc8O)nnc7c6)C5)C4)nc3)no2)C(C)C)cc1 [Compound 231] and write its reported DC50.
Response: < 10 nM

Prompt: Read the entry Cc1ncsc1-c1ccc([C@H](C)NC(=O)[C@@H]2C[C@@H](O)CN2C(=O)[C@@H](c2cc(N3CC4(C3)CN(c3cc5nnc(-c6ccccc6O)cc5cc3OC(F)F)C4)no2)C(C)C)cc1 [Compound 206] and write its reported DC50.
Response: < 10 nM

Prompt: Read the entry Cc1ncsc1-c1ccc([C@H](C)NC(=O)[C@@H]2C[C@@H](O)CN2C(=O)[C@@H](c2cc(N3CCC(C(=O)N4CC(c5ccc6nnc(-c7ccccc7O)cc6c5)C4)CC3)no2)C(C)C)cc1 [Compound 7] and write its reported DC50.
Response: > 10 nM

---

biological target: HiBiT-BRM fusion protein in stable HeLa cell line (Homo sapiens, UniProt P51531); construct: expressed in transfected cells; experiment: HiBiT-BRM cell-based degradation assay (Nano-Glo HiBiT Lytic Detection, 24 h); set-up: scale not given here; conditions: HeLa HiBiT-BRM cells, read-out: BRM HiBit Degradation IC50
endpoint label: DC50

Prompt: Read the entry Cc1ncsc1-c1ccc([C@H](C)NC(=O)[C@@H]2C[C@@H](O)CN2C(=O)[C@H](c2cc(-c3cnc(N4CC(c5cc(Cl)c6cc(-c7ccccc7O)nnc6c5)C4)nc3)no2)C(C)C)cc1 and write its reported DC50.
Response: > 100 nM

Prompt: Read the entry Cc1ncsc1-c1ccc([C@H](C)NC(=O)[C@@H]2C[C@@H](O)CN2C(=O)[C@@H](c2cc(-c3cnc(N4CC[C@H](c5ccc6nnc(-c7ccccc7O)cc6c5)C4)nc3)no2)C(C)C)cc1 and write its reported DC50.
Response: < 10 nM

Prompt: Read the entry Cc1ncsc1-c1ccc([C@H](C)NC(=O)[C@@H]2C[C@@H](O)CN2C(=O)[C@@H](c2cc(N3CC4(CN(c5cc(C#N)c6cc(-c7ccccc7O)nnc6c5)C4)C3)no2)C(C)C)cc1 and write its reported DC50.
Response: > 10 nM

Prompt: Read the entry Cc1ncsc1-c1ccc([C@H](C)NC(=O)[C@@H]2C[C@@H](O)CN2C(=O)C(c2cc(N3CC4(CN(c5cc(C(F)F)c6cc(-c7ccccc7O)nnc6c5)C4)C3)no2)C(C)C)cc1 (some centres unmarked) and write its reported DC50.
Response: > 10 nM

Prompt: Read the entry CC(C)[C@@H](C(=O)N1C[C@H](O)C[C@H]1C(=O)N[C@@H](C)c1ccc(F)cc1)c1cc(N2CC3(CC(c4cc5nnc(-c6ccccc6O)cc5cc4C#N)C3)C2)no1 and write its reported DC50.
Response: > 100 nM
